The origin of these recorded values is patent EP1818058A2.

Target: MMP-7 (Homo sapiens, UniProt P09237)
Sequence (P09237 95-267): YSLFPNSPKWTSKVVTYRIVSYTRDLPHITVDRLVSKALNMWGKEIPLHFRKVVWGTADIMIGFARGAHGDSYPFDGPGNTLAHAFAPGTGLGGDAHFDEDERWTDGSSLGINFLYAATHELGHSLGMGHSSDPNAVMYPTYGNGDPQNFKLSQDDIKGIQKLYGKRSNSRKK
Assay: MMP enzyme assay (fluorogenic Mca peptide substrate, MDS Pharma Services)
Conditions: concentration giving 50 % inhibition; Human recombinant (E.coli) MMP-7; read-out: Concentration of Pemirolast
EXPERIMENTAL ENDPOINT: pIC50
Numbers only, as −log10 of the molar value.

Ask: Respond only with pIC50 recorded for Cc1cccn2c(=O)c(-c3nnn[nH]3)cnc12
Reply: 4.49
